Target: 72 kDa type IV collagenase (Homo sapiens, UniProt P08253)
Sequence (P08253 whole entry): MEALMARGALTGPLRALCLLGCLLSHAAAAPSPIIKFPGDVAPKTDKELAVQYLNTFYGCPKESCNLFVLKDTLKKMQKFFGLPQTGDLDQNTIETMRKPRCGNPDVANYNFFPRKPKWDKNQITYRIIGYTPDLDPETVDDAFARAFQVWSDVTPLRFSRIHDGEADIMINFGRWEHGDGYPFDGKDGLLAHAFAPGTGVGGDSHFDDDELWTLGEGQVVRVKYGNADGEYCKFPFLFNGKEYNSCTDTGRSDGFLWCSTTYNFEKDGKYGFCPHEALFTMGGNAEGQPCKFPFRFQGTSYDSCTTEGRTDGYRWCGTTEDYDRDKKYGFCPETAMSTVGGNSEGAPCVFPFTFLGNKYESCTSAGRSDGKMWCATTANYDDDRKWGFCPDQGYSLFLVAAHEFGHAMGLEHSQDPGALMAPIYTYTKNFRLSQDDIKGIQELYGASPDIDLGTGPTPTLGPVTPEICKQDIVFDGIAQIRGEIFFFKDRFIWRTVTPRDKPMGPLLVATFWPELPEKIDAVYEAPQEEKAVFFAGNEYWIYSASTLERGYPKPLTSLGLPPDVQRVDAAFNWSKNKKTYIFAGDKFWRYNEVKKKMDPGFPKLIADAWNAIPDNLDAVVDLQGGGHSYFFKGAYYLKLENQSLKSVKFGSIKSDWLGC
Assay: Dose Response validation of uHTS RPN11 inhibitor hits using a MMP-2 Fluorescence assay.
Assay type: functional
The source made the active and inactive calls. Cut-off read from the data, not from the text of the source: actives have a measured IC50 and inactives only a lower limit.
Could you please pick one outcome from this set? T (active), F (inactive)

Write down the call the test reported for this molecule. Item: N#C/C(=C\C1=C(N2CCOCC2)C(=C\c2ccc(Cl)cc2)/CC1)C(=O)Nc1ccccc1F
F

Also O=C(N/N=C/c1ccc(Cl)cc1Cl)c1ccc2[nH]cnc2c1 , if possible.
F

Also COc1ccccc1NC(=O)CSc1nc(N)c(C#N)cc1C#N , if possible.
F

Also COc1ccc(OC)c(N2C(=O)/C(=C/Nc3c(C)n(C)n(-c4ccccc4)c3=O)C(=O)NC2=S)c1 , if possible.
T

Also CCOC(=O)Cc1csc(NC(=O)c2sc3nc4ccc(C)cc4cc3c2N)n1 , if possible.
F

Also CC(C)NC(=S)N/N=C/c1sc(N2CCCCC2)nc1-c1cccs1 , if possible.
T
